Test system: breast, ovarian and colon carcinoma and osteosarcoma
EXPERIMENTAL PROTOCOL: In vitro proliferation assay with MZ
Format: cell-based
ASSAY CONDITIONS: Homo sapiens

QUERY SMILES	IC50
COC(=O)Nc1nc2ccc(C(=O)c3ccccc3)cc2[nH]1	100 to 800 nM

====

Consider the following molecules and their measured pIC50 readings.
Test system: A549
EXPERIMENTAL PROTOCOL: Proliferation assay, 50% growth inhibitory concentration
Type: cell-based
ASSAY CONDITIONS: Homo sapiens, 24 h; A549, p53 positive; after 1 day of exposure
pIC50: −log10 of the molar value.
READOUT LABEL: pIC50

MOLECULE	TARGET OR SYSTEM	READOUT LABEL	REPORTED RESULT
COC(=O)Nc1nc2ccc(Sc3ccccc3)cc2[nH]1 [Fenbendazole]	A549	pIC50	6.91
COC(=O)Nc1nc2ccc(C(=O)c3ccccc3)cc2[nH]1 [Mebendazole]	A549	pIC50	6.89
